biological target: HIV-1 reverse transcriptase, wild type (WT) (Human immunodeficiency virus type 1 group M subtype B, UniProt P03367); construct: Reverse transcriptase enzyme from the LAV strain of Human Immunodeficiency Virus (HIV-1); made in house; host or cells: Escherichia coli JM109 (clone pBRTprtl+ in vector pIBI21); test: Reverse Transcriptase Assay, wild type (WT) enzyme (RNA-dependent DNA polymerase activity; poly r(C)/oligo d(G), 3H-dGTP); assay type: biochemical, HIV-1 (LAV strain); settings: wild type (WT) RT
Reported values of inhibition at 1 µM for individual entries
observable: inhibition at 1 µM (%)

molecule	observable	unit_string	result_number
CN1C(=O)c2cccnc2C2(CCCC2)c2ncccc21 [Example 6]	inhibition at 1 µM	%	62
CCCC1c2ncccc2C(=O)N(C)c2cccnc21 (stereo not drawn) [Example 3]	inhibition at 1 µM	%	64
CCC1c2ncccc2C(=O)N(C)c2cccnc21 (stereo not drawn) [Example 2]	inhibition at 1 µM	%	62

---

molecular target: HIV-1 reverse transcriptase, wild type (WT) (Human immunodeficiency virus type 1 group M subtype B); construct: Reverse transcriptase enzyme from the LAV strain of Human Immunodeficiency Virus (HIV-1); made in house; host or cells: Escherichia coli JM109 (clone pBRTprtl+ in vector pIBI21); experiment: Reverse Transcriptase Assay, wild type (WT) enzyme (RNA-dependent DNA polymerase activity; poly r(C)/oligo d(G), 3H-dGTP); type: biochemical, HIV-1 (LAV strain); conditions: wild type (WT) RT
Reported values of inhibition at 1 µM for individual entries
observable: inhibition at 1 µM (%)

compound	observable	result_number
COc1ccc2c(n1)C(SC)c1ncccc1C(=O)N2C (stereo not shown) [Example 11]	inhibition at 1 µM	80
COc1ccc2c(n1)C(SC)c1c(ccc[n+]1[O-])C(=O)N2C (stereo not shown) [Example 10]	inhibition at 1 µM	91
CCC1c2ncccc2N(C)C(=O)c2ccc[n+]([O-])c21 (stereo not shown) [Example 1]	inhibition at 1 µM	68
CCC1(C)c2ncccc2C(=O)N(C)c2cccnc21 (stereo not shown) [Example 4]	inhibition at 1 µM	68
CCC1c2nc(OC)ccc2N(C)C(=O)c2ccc[n+]([O-])c21 (stereo not shown) [Example 7]	inhibition at 1 µM	75
CCC1(CC)c2ncccc2C(=O)N(C)c2cccnc21 [Example 5]	inhibition at 1 µM	62
COc1ccc2c(n1)C(C)(SC)c1ncccc1C(=O)N2C (stereo not shown) [Example 12]	inhibition at 1 µM	41
CCC1c2ncccc2C(=O)N(C)c2ccc(-c3cn[nH]c3)nc21 (stereo not shown) [Example 13]	inhibition at 1 µM	80
CCC1(CC)c2ncccc2C(=O)N(C)c2ccc(OC)nc21 [Example 9]	inhibition at 1 µM	66
CCC1c2ncccc2C(=O)N(C)c2ccc(OC)nc21 (stereo not shown) [Example 8]	inhibition at 1 µM	84
